Values from patent US4563471A

Test system: DBA/2j mice
Experiment: Audiogenic cramps
Format: in vivo, mouse
Conditions: po, 1 min; i.g., male DBA/2j mouse; 10.9 KHz sound of 110 dBA, 30 s; observation 1 min; read-out: ED50 audiogenic cramp
So I've got a bunch of compounds here, and I need their ED50 values.
One number for each entry, in mg/kg.

compound	test.result
Cc1cccc(C)c1NC(=O)/C=C1\SCC(=O)N1C	2.9
CN1C(=O)CS/C1=C\C(=O)Nc1c(Cl)cccc1Cl	2
Cc1cccc(Cl)c1NC(=O)/C=C1\SCC(=O)N1C	3

# input for lookup
# input compound: "O=C1NC(=O)C(c2ccccc2)(c2ccccc2)N1" ; wanted: its ED50
2.3

====

So I've got a bunch of compounds here, and I need their LD50 at 168 h values.
Test: in vivo
Settings: mouse, po
Give bare numbers, in mg/kg.

# annotated cases, reported LD50 at 168 h shown
compound	experimental.readout	test.result
NCC(CC(=O)O)c1ccc(Cl)cc1 (centres unmarked)	LD50 at 168 h	200
Cc1cccc(C)c1NC(=O)/C=C1\SCC(=O)N1C	LD50 at 168 h	1980

Look up LD50 at 168 h for the entries below, preserving their order.
1. CN1C(=O)CS/C1=C\C(=O)Nc1c(Cl)cccc1Cl
2. CCCC(CCC)C(=O)O [valproate]

[1600, 2000]

====

Test system: male mice (NMRI)
Experiment: Picrotoxin cramp
Assay type: in vivo, mouse
Conditions: Mus musculus, po, 20 min, read-out: ED50 picrotoxin cramp
So I've got a bunch of molecules here, and I need their log10 of ED50 values.
The base-10 logarithm of ED50, taken with ED50 in mg/kg, is what appears here.

molecule	log10 of ED50
NCC(CC(=O)O)c1ccc(Cl)cc1 (centres unmarked)	1.48
Cc1cccc(C)c1NC(=O)/C=C1\SCC(=O)N1C	1.05

Look up log10 of ED50 for the entries below, preserving their order.
1. CN1C(=O)CS/C1=C\C(=O)Nc1c(Cl)cccc1Cl
2. O=C1NC(=O)C(c2ccccc2)(c2ccccc2)N1
3. Cc1cccc(Cl)c1NC(=O)/C=C1\SCC(=O)N1C

0.18
2.30
0.37

====

System: male mice (NMRI)
Assay: Semicarbazide cramp
Assay type: in vivo, mouse
Conditions: po, 1.5 h; i.g., male mouse; semicarbazide hydrochloride 1000 mg/kg s.c.; observation 90 min; read-out: ED50 semicarbazide cramp
So I've got a bunch of compounds here, and I need their ED50 values.
Answers are plain numbers, in mg/kg.

# annotated cases, reported ED50 shown
compound	system.name	u	ED50
Cc1cccc(Cl)c1NC(=O)/C=C1\SCC(=O)N1C	male mice (NMRI)	mg/kg	1.59
NCCCC(=O)O	male mice (NMRI)	mg/kg	60
Cc1cccc(C)c1NC(=O)/C=C1\SCC(=O)N1C	male mice (NMRI)	mg/kg	14.1

# input for lookup
# input compound: "CN1C(=O)CS/C1=C\C(=O)Nc1c(Cl)cccc1Cl" ; wanted: its ED50
3.41

====

Experiment: in vivo
Conditions: mouse, po
So I've got a bunch of compounds here, and I need their selectivity ratio values.

Look up selectivity ratio for the entries below, preserving their order.
1. NCC(CC(=O)O)c1ccc(Cl)cc1 (centres unmarked)
2. CCCC(CCC)C(=O)O [valproate]

["2 to 100", "8 to 14.8"]

====

So I've got a bunch of molecules here, and I need their selectivity ratio values.
Assay: in vivo
Conditions: mouse, po

# annotated cases, reported selectivity ratio shown
molecule	selectivity ratio
CN1C(=O)CS/C1=C\C(=O)Nc1c(Cl)cccc1Cl [2 (j)]	282 to 2000
Cc1cccc(C)c1NC(=O)/C=C1\SCC(=O)N1C [2 (a)]	99.8 to 739

# input for lookup
# input molecule: Cc1cccc(Cl)c1NC(=O)/C=C1\SCC(=O)N1C [2 (i)] ; wanted: its selectivity ratio
243 to 1780
